Target: ~100 representative kinases (Homo sapiens, UniProt Q00536)
Construct: Recombinant protein kinase domains with a concentration of 2 μM
Sequence (Q00536 whole entry, the tested form may be a part): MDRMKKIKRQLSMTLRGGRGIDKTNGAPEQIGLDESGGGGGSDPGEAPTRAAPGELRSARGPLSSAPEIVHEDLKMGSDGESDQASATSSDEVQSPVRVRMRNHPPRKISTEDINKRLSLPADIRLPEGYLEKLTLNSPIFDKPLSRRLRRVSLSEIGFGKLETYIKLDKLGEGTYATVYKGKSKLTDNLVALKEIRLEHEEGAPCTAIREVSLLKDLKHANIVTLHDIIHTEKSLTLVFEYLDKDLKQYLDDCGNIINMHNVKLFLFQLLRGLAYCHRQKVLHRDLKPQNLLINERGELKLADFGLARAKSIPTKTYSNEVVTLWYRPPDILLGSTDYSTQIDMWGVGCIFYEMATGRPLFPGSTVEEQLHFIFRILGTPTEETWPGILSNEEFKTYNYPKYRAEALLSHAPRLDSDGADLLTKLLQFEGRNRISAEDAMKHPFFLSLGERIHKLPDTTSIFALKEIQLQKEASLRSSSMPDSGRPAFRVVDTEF
Assay: DSF 100 kinase selectivity screen;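 note: compound tested at 20 µM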
Type: binding
Settings: protein PCTK1; average of three replicates
Property Label: dTm (K)

Consider the reported dTm for these compounds:
Cpd Smiles | Units | Observed
COc1cc(S(C)(=O)=O)ccc1Nc1nc(N(C)C)c2c(Cl)c[nH]c2n1 | K | -0.043
O=C(Nc1ccc(Cl)cc1)C1(C(=O)Nc2cccc(-c3c[nH]c4ncnc(N5CCOCC5)c34)c2)CC1 | K | 9.13
C[C@@H]1CN(c2cc(-c3n[nH]c4ccc(OC5(C)CC5)cc34)ncn2)C[C@H](C)O1 | K | -0.14

(A) Cc1cc(F)ccc1NC(=O)C1(C(=O)Nc2cccc(-c3c[nH]c4ncnc(N5CCOCC5)c34)c2)CC1
(B) O=C(Nc1cccc(-c2c[nH]c3ncnc(N4CCOCC4)c23)c1)C1(C(=O)Nc2ccc(F)c(F)c2)CC1
(C) Cc1cc(NC(=O)C2(C(=O)Nc3ccc(F)cc3)CC2)cc(-c2c[nH]c3ncnc(N4CCOCC4)c23)c1
(D) CCc1ccc(NC(=O)C2(C(=O)Nc3cccc(-c4c[nH]c5ncnc(N6CCOCC6)c45)c3)CC2)cc1
Order the records, beginning with the lowest dTm and ending with the highest. Write the labels out in the order the request specifies.
C, A, B, D

(a) O=C(Nc1ccccc1)C1(C(=O)Nc2cccc(-c3c[nH]c4ncnc(N5CCOCC5)c34)c2)CC1
(b) O=C(Nc1cccc(-c2c[nH]c3ncnc(N4CCOCC4)c23)c1)C1(C(=O)Nc2ccc(F)c(Cl)c2)CC1
(c) O=C(Nc1cc(F)cc(Br)c1)C1(C(=O)Nc2cccc(-c3c[nH]c4ncnc(N5CCOCC5)c34)c2)CC1
(d) Cc1ccc(-n2nc(C(C)(C)C)cc2NC(=O)Nc2cccc(-c3c[nH]c4ncnc(N5CCOCC5)c34)c2)cc1
Order the records, beginning with the lowest dTm and ending with the highest. Write the labels out in the order the request specifies.
c, a, b, d
(c: 0.18 K, a: 5.02 K, b: 7.39 K, d: 16.54 K)
